Potency values by entry
# test_details: qHTS of pediatric cancer cell lines to identify multiple opportunities for drug repurposing: Confirmatory screen for A673 cells (AID 1347110);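 further: potency means the concentration at half of the fitted maximal effect; cells exposed to compound for 48 h before the viability read; nearly all actives have a fitted effect of over 65% in size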
# measurement_parameters: A673 Ewing sarcoma cell viability; series mostly up to 45.9 µM
Results filed as inconclusive are left out. The source made the active and inactive calls. The call rests on the fitted dose curve; in most records, active means well fitted cell-killing curve with a large enough effect; inconclusive means small, poorly fitted or top-dose-only effect; inactive means flat fitted curve, though single readings scatter. Residues, ends and D or L forms follow the SMILES beside them. *: point of attachment. Cbz = O=C(OCc1ccccc1)*

{"molecule": "CC(C)C[C@H](NC(=O)[C@@H](NC(=O)c1cccc(-c2ccccc2)n1)[C@@H](C)O)B(O)O", "Potency": "0.0737 µM (active)"}
{"molecule": "Cc1ccc([N+](=O)[O-])cc1S(=O)(=O)N(C)N=Cc1cnc2ccc(Br)cn12", "Potency": "0.293 µM (active)"}
{"molecule": "Oc1ccc(-c2ccc(-c3cc(Nc4cccc(CNC5CC5)c4)n[nH]3)cc2)c(O)c1", "Potency": "2.33 µM (active)"}
{"molecule": "CC(C)C[C@@H](C=O)NC(=O)[C@H](CC(C)C)NC(=O)[C@H](CC(C)C)NC(=O)OCc1ccccc1 (Cbz-Leu-Leu-Leu-aldehyde)", "Potency": "1.17 µM (active)"}

---

# test_details: Quantitative High-Throughput drug screen in 47 multiple myeloma cell lines against the NCATS MIPE library collection: OPM2_DSMZ cell viability assay (AID 1919872); further: nearly all actives have a fitted effect of over 30% in size
# measurement_parameters: OPM2 myeloma viability, CellTiter-Glo ATP luminescence, 48 h; series mostly up to 45.8 µM
Inconclusive results are not listed. Active and inactive are the calls of the source. Calls follow the shape of the dose curve; as a rule, active = well fitted cell-killing curve with a large enough effect; inconclusive = small, poorly fitted or top-dose-only effect, or effect the other way; inactive = no such curve, though single readings can be large or run the other way. Starred links: 1 amine or outer side, 2 acyl side, 3 side chain; linkers in the order of their positions; H or OH if unused. Positions of bridges follow the written chain, without caps; N, C: chain ends. Non-standard residues stand in square brackets, D forms with d. Residues, ends and D or L forms follow the SMILES beside them. Chains are numbered I, II in the order given. Actinocin(9to1) = Cc1c2oc3c(C)ccc(C(=O)[*:1])c3nc-2c(C(=O)[*:2])c(N)c1=O; NMeV = CN[CH](C(=O)O)C(C)C; Sar = CNCC(=O)O
Possible outcomes: active, inactive

{"compound": "C[C@H]1COc2c(N3CCN(C)CC3)c(F)cc3c(=O)c(C(=O)O)cn1c23", "group_label": "inactive"}
{"compound": "C[C@](Cc1c[nH]c2ccccc12)(NC(=O)OC1C2CC3CC(C2)CC1C3)C(=O)NC[C@H](NC(=O)CCC(=O)O)c1ccccc1 (some centres undefined)", "group_label": "inactive"}
{"compound": "O=S(=O)(O)CCSSCCS(=O)(=O)O", "group_label": "inactive"}
{"compound": "Cc1cc(-c2nnc3n2CCCCC3)c(C)n1-c1ccccc1", "group_label": "inactive"}
{"compound": "Cc1ccccc1C(=O)Nc1ccc(C(=O)N2CCCC(O)c3cc(Cl)ccc32)c(C)c1 (centres undefined)", "group_label": "inactive"}
{"compound": "C[N+]1(C)[C@@H]2C[C@@H](OC(=O)C(O)(c3cccs3)c3cccs3)C[C@H]1[C@@H]1O[C@@H]12", "group_label": "inactive"}
{"compound": "Cc1c2oc3c(C)ccc(C(=O)NC4C(=O)NC(C(C)C)C(=O)N5CCCC5C(=O)N(C)CC(=O)N(C)C(C(C)C)C(=O)OC4C)c3nc-2c(C(=O)NC2C(=O)NC(C(C)C)C(=O)N3CCCC3C(=O)N(C)CC(=O)N(C)C(C(C)C)C(=O)OC2C)c(N)c1=O (centres undefined) (I: TVP[Sar][NMeV] / II: TVP[Sar][NMeV]; ester I:1-I:C, II:1-II:C; linker I:N-II:N via Actinocin(9to1); configuration not given here)", "group_label": "inactive"}
{"compound": "NC(=O)c1ncn([C@@H]2O[C@H](CO)[C@@H](O)[C@@H]2O)c1O", "group_label": "inactive"}
{"compound": "N#CC(=C(N)Sc1ccc(N)cc1)c1ccccc1C(F)(F)F", "group_label": "inactive"}
{"compound": "CN[C@H](CC(C)C)C(=O)N[C@H]1C(=O)N[C@@H](CC(N)=O)C(=O)N[C@@H]2C(=O)N[C@H]3C(=O)N[C@H](C(=O)N[C@H](C(=O)O)c4cc(O)cc(O)c4-c4cc3ccc4O)[C@H](O)c3ccc(c(Cl)c3)Oc3cc2cc(c3O[C@@H]2O[C@H](CO)[C@@H](O)[C@H](O)[C@@H]2O[C@H]2C[C@](C)(N)[C@H](O)[C@H](C)O2)Oc2ccc(cc2Cl)[C@H]1O", "group_label": "inactive"}
{"compound": "CC(C)N1[N]C(=C2C=c3cc(O)ccc3=N2)c2c(N)ncnc21", "group_label": "active"}
{"compound": "Cc1cnc(Nc2ccc(N3CCN(C)CC3)cc2)nc1Nc1cccc(S(=O)(=O)NC(C)(C)C)c1", "group_label": "active"}
{"compound": "O=C(C=CC=Cc1ccc2c(c1)OCO2)N1CCCCC1", "group_label": "inactive"}
{"compound": "CN1C(C(=O)Nc2ccccn2)=C(O)c2sc(Cl)cc2S1(=O)=O", "group_label": "inactive"}

---

# test_details: qHTS drug screen for cell cycle checkpoint inhibitors in PARPi-resistant BRCA-mutant ovarian cancer cell lines. (AID 1963452)
# measurement_parameters: PEO1/OlaR viability, CellTiter-Glo luminescence, 96 h; measured here: PEO4 Z-AUC; stronger effect = lower value
Threshold -0.09. Z-AUC below it: satisfied. Z-AUC at it or above: not satisfied.

{"compound": "O=C1NC(O)CCN1[C@@H]1O[C@H](CO)[C@H](O)[C@H]1O (stereo partly drawn)", "group_label": "satisfied"}
{"compound": "C[C@H]1COc2c(N3CCN(C)CC3)c(F)cc3c(=O)c(C(=O)O)cn1c23", "group_label": "satisfied"}
{"compound": "O=C(c1ccc(F)cc1)N1CCC[C@H](c2nc(-c3ccc(F)cc3)no2)C1", "group_label": "not satisfied"}
{"compound": "CS(=O)(=O)N1CCc2c(-c3cnc(N)nc3)nc(N3CCOCC3)nc21", "group_label": "not satisfied"}
{"compound": "C=C(C)[C@@H]1CC[C@]2(C)CC[C@]3(C)[C@H](CC[C@@H]4[C@@]5(C)CC[C@H](O)C(C)(C)[C@H]5CC[C@]43C)[C@@H]12", "group_label": "not satisfied"}
{"compound": "CCOC(=O)[C@@H](N)Cc1ccc(-c2cc(O[C@H](c3ccc(Cl)cc3-n3ccc(C)n3)C(F)(F)F)nc(N)n2)cc1", "group_label": "satisfied"}
{"compound": "Cc1ccc(-n2[nH]c(C)c(N=Nc3cccc(-c4cccc(C(=O)O)c4)c3O)c2=O)cc1C", "group_label": "not satisfied"}
{"compound": "CCOC(=O)C1=C(C)NC(=S)NC1c1cccc(O)c1 (stereo not drawn)", "group_label": "not satisfied"}
{"compound": "COc1cc2ncnc(Nc3cccc(Br)c3)c2cc1OC", "group_label": "not satisfied"}
{"compound": "C[C@H](NC(=O)Cc1cc(F)cc(F)c1)C(=O)N[C@H](C(=O)OC(C)(C)C)c1ccccc1", "group_label": "satisfied"}
{"compound": "C[C@@H]1C(=O)O[C@H]2CC34[C@H]5C[C@@H](C(C)(C)C)C36[C@H](OC(=O)[C@@H]6O)O[C@@]4(C(=O)O5)[C@]21O (stereo partly drawn)", "group_label": "not satisfied"}
{"compound": "CCCNS(=O)(=O)Nc1ncnc(OCCOc2ncc(Br)cn2)c1-c1ccc(Br)cc1", "group_label": "not satisfied"}
{"compound": "CC(C)n1cnc2c(NCCc3ccc(O)cc3)nc(-c3csc4ccccc34)nc21", "group_label": "not satisfied"}
{"compound": "COc1cc(C[C@@H](CO)[C@H](CO)Cc2ccc(O)c(OC)c2)ccc1O", "group_label": "not satisfied"}
{"compound": "c1ccc2c(Oc3nc(Nc4ccc(N5CCOCC5)cc4)c4ncn(C5CCCCC5)c4n3)cccc2c1", "group_label": "not satisfied"}
{"compound": "CN(C)c1ccc(C(=O)NCCCCCCC(=O)NO)cc1", "group_label": "satisfied"}
{"compound": "FC(F)(F)c1ccc(Nc2nc3ccc(Oc4ccnc(-c5ncc(C(F)(F)F)[nH]5)c4)cc3[nH]2)cc1", "group_label": "satisfied"}
{"compound": "Cc1ccc2nc(NCCN)c3ncc(C)n3c2c1", "group_label": "not satisfied"}
{"compound": "C[C@](Cc1c[nH]c2ccccc12)(NC(=O)OC1C2CC3CC(C2)CC1C3)C(=O)NC[C@H](NC(=O)CCC(=O)O)c1ccccc1 (stereo partly drawn)", "group_label": "not satisfied"}
{"compound": "Cc1cnc(NC(=O)Nc2cc(Br)c(C)cc2OC[C@@H]2CNCCO2)cn1", "group_label": "not satisfied"}
{"compound": "O=C(NC1CC1)c1cccc(-c2ccc3c(NC(=O)C4CC4)n[nH]c3c2)c1", "group_label": "not satisfied"}
{"compound": "O=C(Nc1nnc(-c2ccco2)o1)c1cc(-c2ccccc2)nc2ccccc12", "group_label": "not satisfied"}
{"compound": "c1cncc(CN2CCC(n3ncc4c(N5CCOCC5)nc(-c5ccc6[nH]ccc6c5)nc43)CC2)c1", "group_label": "satisfied"}
{"compound": "Cn1cc(CNCC2CCN(c3ncc(C(=O)NO)cn3)CC2)c2ccccc21", "group_label": "satisfied"}
{"compound": "Cc1ncc(-c2ccnc(Nc3ccc(S(C)(=O)=O)cc3)n2)n1C(C)C", "group_label": "satisfied"}
{"compound": "Nc1ccn(C[C@@H](CO)OCP(=O)(O)O)c(=O)n1", "group_label": "satisfied"}
{"compound": "CCC(C(=O)O)C1CCC(C)C(C(C)C(O)C(C)C(=O)C(CC)C2OC3(C=CC(O)[C@@]4(CC[C@](C)(C5CC[C@@](O)(CC)C(C)O5)O4)O3)C(C)CC2C)O1 (stereo partly drawn)", "group_label": "satisfied"}
{"compound": "COc1cc2c(cc1OC)[C@@H]1C(=O)c3ccc4c(c3O[C@@H]1CO2)C=CC(C)(C)O4", "group_label": "satisfied"}
{"compound": "N#CNC(=NCCCCCCOc1ccc(Cl)cc1)Nc1ccncc1", "group_label": "satisfied"}
{"compound": "O=C(CN1C(=O)C2(CCCC2)NC[C@H]1c1cc(F)cc(F)c1)Nc1ccc2c(c1)C[C@@]1(C2)C(=O)Nc2ncccc21", "group_label": "not satisfied"}
{"compound": "N#Cc1cc(NC(=O)Nc2nnc(-c3ccncc3)s2)ccc1-c1cn[nH]c1", "group_label": "not satisfied"}
{"compound": "COc1ccc(Nc2cc(-c3cnc(N)nc3)nc(N3CCOCC3)n2)cn1", "group_label": "not satisfied"}
{"compound": "N#Cc1c(C2CCNCC2)cc(-c2c(O)cccc2OCC2CC2)nc1N", "group_label": "not satisfied"}
{"compound": "CC(C)Oc1ccc(C(=O)N[C@H](CNC(=O)CN(C)C)Cc2ccc(-c3cn4cccc([C@H](C)O)c4n3)cc2)cc1Cl", "group_label": "satisfied"}
{"compound": "Cc1noc(-c2ccc(CSCCC(=O)O)cc2)c1NC(=O)OC(C)c1ccccc1Cl (stereo not drawn)", "group_label": "satisfied"}
{"compound": "Oc1cc2c(cc1O)C1c3ccc(O)c(O)c3OCC1(O)C2 (stereo not drawn)", "group_label": "not satisfied"}
{"compound": "CCCCOc1ccc(C(=O)Nc2ccc(F)cc2F)cc1", "group_label": "satisfied"}
{"compound": "CN(C)CCN1C(=O)c2cccc3cc(N)cc(c23)C1=O", "group_label": "satisfied"}

Ref: PubChem BioAssay (NCATS)
